In this section, each of the compounds is paired with its reported logP.
test: method code SF, from Hansch, C. & Leo, A. (1987). Log P database [Dataset]. Pomona College Medicinal Chemistry Project.

compound: C=COCC
logP: 1.04

compound: O=C1C2(Cl)C3(Cl)C4(Cl)C(Cl)(Cl)C5(Cl)C3(Cl)C1(Cl)C5(Cl)C24Cl (stereo not given)
logP: 5.41

compound: O=C(/C=C/C(=O)c1ccccc1)c1ccccc1
logP: 3.16

compound: NC(=O)c1ccsc1
logP: 0.5

compound: CN(C)C(=O)/C=C/c1ccccc1
logP: 1.73

compound: c1ccc(OCCOc2ccccc2)cc1
logP: 3.81

compound: CCC(C)NC(=O)/C=C/c1ccccc1 (stereo not given)
logP: 2.85

compound: CCOP(=O)(OCC)Oc1ccc(SC)cc1
logP: 2.79

compound: Nc1ccccc1Br
logP: 2.11

compound: O=C(O)c1csc(C=Cc2ccc([N+](=O)[O-])o2)n1
logP: -0.03

compound: CCC(=O)OCCOc1ccc(C=NO)cc1OC
logP: 1.52

compound: O=S1(=O)NC(c2ccco2)=Nc2ccccc21
logP: 1.06

compound: [O-][n+]1ccccc1SCc1ccccc1
logP: 1.24

compound: O=[N+]([O-])c1ccc(OCCn2ccnn2)cc1
logP: 1.19

compound: O=C(O)c1cccs1
logP: 1.57

compound: O=P1(NCCCl)OCCCN1CCCl (stereo not given)
logP: 0.86

compound: CCOC(=O)[C@H](O)[C@@H](O)C(=O)OCC
logP: -0.29

compound: Brc1cccc(Br)c1
logP: 3.75

compound: CN(C(=O)CCOS(C)(=O)=O)c1ccc(S(=O)(=O)N(C)C)cc1
logP: -0.68

compound: c1ccc2c(c1)CCc1ccccc1NC2
logP: 2.82

compound: CC(=O)OC1OC(C)C(OC(C)=O)C(OC(C)=O)C1NC(=O)N(CCCl)N=O (stereo not given)
logP: 1.32

compound: CN(C)CCCN1c2ccccc2Sc2ccc(S(C)(=O)=O)cc21
logP: 3.5

compound: CCCOc1ccccc1
logP: 3.18

compound: CC(C)C1=Nc2cc(Cl)ccc2S(=O)(=O)N1
logP: 2

compound: CC(=O)Oc1ccccc1F
logP: 1.76

compound: CCOP(=O)(OCC)OCC
logP: 0.8

compound: NC(=O)N/N=C/c1ccccc1
logP: 1.27

compound: CCCCOC(=O)c1cccc(C(=O)OCCCC)c1
logP: 4.26

compound: CNc1ccc(S(=O)(=O)N(C)C)cc1
logP: 1.43

compound: CC(=O)Nc1cccc(N(C)C)c1
logP: 1.29
